Sourced from ChEMBL document CHEMBL1155179

# experimental.system: Synaptic vesicular amine transporter (Rattus norvegicus, UniProt Q01827)
# Sequence (Q01827 whole entry): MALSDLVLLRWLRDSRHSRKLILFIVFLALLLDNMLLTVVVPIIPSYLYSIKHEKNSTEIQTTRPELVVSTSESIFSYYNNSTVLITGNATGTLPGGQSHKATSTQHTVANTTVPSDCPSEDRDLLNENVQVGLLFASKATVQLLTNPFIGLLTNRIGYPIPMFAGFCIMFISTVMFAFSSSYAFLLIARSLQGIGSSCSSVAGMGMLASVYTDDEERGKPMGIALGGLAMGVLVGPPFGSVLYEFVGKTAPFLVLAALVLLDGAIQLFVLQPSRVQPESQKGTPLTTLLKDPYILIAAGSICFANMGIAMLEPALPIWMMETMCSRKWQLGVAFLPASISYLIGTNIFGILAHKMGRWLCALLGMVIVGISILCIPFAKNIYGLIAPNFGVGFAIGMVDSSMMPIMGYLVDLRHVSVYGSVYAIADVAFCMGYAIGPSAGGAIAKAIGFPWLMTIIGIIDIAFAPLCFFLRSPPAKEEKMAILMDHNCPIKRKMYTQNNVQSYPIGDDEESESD
# experiment.summary: Inhibition of [3H]dopamine uptake at VMAT2 in rat brain synaptic vesicle by liquid scintillation spectroscopy
# Format: tissue-based
# Ki per entry
quantity.measured: Ki (µM)

smiles.repr | assay.result
OC[C@H](c1ccccc1)N1[C@H](CCc2ccccc2)CC[C@@H]1CCc1ccccc1 | 1.29
c1ccc(CCC[C@@H]2CC[C@H](CCCc3ccccc3)N2)cc1 | 0.014
c1ccc(CC[C@@H]2CC[C@@H](CCc3ccccc3)N2)cc1 | 0.054
c1ccc(CC[C@@H]2CC[C@H](CCc3ccccc3)N2)cc1 | 0.029
CN1[C@H](CCc2ccccc2)CC[C@H]1CCc1ccccc1 | 0.12
OC[C@@H](c1ccccc1)N1[C@H](CCc2ccccc2)CC[C@@H]1CCc1ccccc1 | 0.14
